For each record, write down the corresponding log10 of Kb.
testedOn: human Orexin 1 receptor (Homo sapiens)
Construct: stably expressing the full-length human Orexin 1 receptor; expressed in transfected cells; host or cells: CHO-K1 (CHO-K1/hOX1), co-expressing aequorin
Sequence (O43613 whole entry): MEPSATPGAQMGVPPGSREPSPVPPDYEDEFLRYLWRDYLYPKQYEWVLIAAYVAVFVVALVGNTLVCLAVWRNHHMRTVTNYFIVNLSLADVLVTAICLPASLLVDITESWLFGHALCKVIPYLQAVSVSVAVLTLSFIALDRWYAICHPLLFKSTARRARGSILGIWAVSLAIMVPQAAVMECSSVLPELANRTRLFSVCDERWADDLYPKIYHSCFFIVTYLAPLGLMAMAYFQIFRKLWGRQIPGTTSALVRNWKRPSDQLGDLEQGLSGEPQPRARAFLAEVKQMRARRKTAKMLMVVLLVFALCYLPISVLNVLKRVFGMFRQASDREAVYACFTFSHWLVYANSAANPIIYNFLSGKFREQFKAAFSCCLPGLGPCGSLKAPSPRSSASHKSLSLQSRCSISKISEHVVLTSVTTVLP
assayExplanation: Assay A: OX1R IP1 (in vitro OX1R potency)
Assay type: cell-based
protocolConditions: Table 3; Orexin A concentration 0.5 nM
In plain terms, each number is the log10 of measured Kb in nM.

Under human Orexin 1 receptor (Homo sapiens): report log10 of Kb of "CCN(C(=O)c1ccc(C)nc1-n1nccn1)[C@@H](C)COc1ncc(C(F)(F)F)cn1" .
0.75

Name the recorded log10 of Kb of "CCN(C(=O)c1cc(C)cnc1-c1ccn(C)n1)[C@@H](C)COc1ccc(C(F)(F)F)cn1" , assay system human Orexin 1 receptor (Homo sapiens).
-0.06

State measured log10 of Kb of the compound "CCN(C(=O)c1cc(OC)cnc1-n1nccn1)[C@@H](C)COc1ccc(C(F)(F)F)cn1" with human Orexin 1 receptor (Homo sapiens).
-0.30

Please report the measured log10 of Kb for "CCN(C(=O)c1nc(C)ccc1-n1nccn1)[C@@H](C)COc1cnc(C(F)(F)F)cn1" tested on human Orexin 1 receptor (Homo sapiens).
0.40

Quote human Orexin 1 receptor (Homo sapiens) log10 of Kb for entry "CCN(C(=O)c1cc(F)cnc1-c1ncccn1)[C@@H](C)COc1ncc(C(F)(F)F)cc1F" .
0.66

Look up human Orexin 1 receptor (Homo sapiens) data: log10 of Kb of "CCN(C(=O)c1cc(F)cnc1-c1nnc(C)o1)[C@@H](C)COc1ccc(C(F)(F)F)cn1" , then report it.
1.49

# assay system human Orexin 1 receptor (Homo sapiens): give log10 of Kb of "CCN(C(=O)c1cc(F)cnc1-n1nccn1)[C@@H](C)COc1ccc(C(F)(F)F)cn1"
0.08

Consider the compound "CCN(C(=O)c1ncccc1-n1nccn1)[C@@H](C)COc1ccc(C(F)(F)F)cn1" tested on human Orexin 1 receptor (Homo sapiens); state its log10 of Kb.
-0.02

###

Exercise: for every item that follows, state its recorded half-life.
assayExplanation: Assay C: Human MST t1/2 (stability in human liver microsomes)
Type: in vitro ADME
protocolConditions: human liver microsomes
Form entry: value (min) — number only.

Indicate its recorded half-life; the molecule in question is CCN(C(=O)c1nc(C)ccc1-n1nccn1)[C@@H](C)COc1ccc(C(F)(F)F)cn1 [Example 5]
25

Identify measured half-life corresponding to CCN(C(=O)c1ccncc1-c1ccn(C)n1)[C@@H](C)COc1ccc(C(F)(F)F)cn1 [Example 29]
11

Fill in half-life for record CCN(C(=O)c1cnccc1-n1cccn1)[C@@H](C)COc1ccc(C(F)(F)F)cn1 [Example 69]
13

Return the recorded half-life value; entry: CCN(C(=O)c1cnccc1-n1nccn1)[C@@H](C)COc1ccc(Cl)cn1 [Example 48]
33

Name the recorded half-life of the molecule listed here: CCN(C(=O)c1ncc(C)cc1-c1ccn(C)n1)[C@@H](C)COc1ccc(C(F)(F)F)cn1 [Example 20]
24

Provide only the value of recorded half-life for CCN(C(=O)c1c(F)ccnc1-c1ccn(C)n1)[C@@H](C)COc1ccc(C(F)(F)F)cn1 [Example 58]
41

###

assayExplanation: Assay C: Human MST t1/2 (stability in human liver microsomes)
Assay type: in vitro ADME
protocolConditions: human liver microsomes
propertyName: half-life (min)
The answer is to be given in min; state only the numeric part.

Return half-life (reported value) for this compound: "CCN(C(=O)c1ccc(OC)nc1-c1ccn(C)n1)[C@@H](C)COc1ccc(C(F)(F)F)cn1"
12

Provide half-life value for the following compound: "CCN(C(=O)c1cc(F)cnc1-n1nccn1)[C@@H](C)COc1ccc(Cl)cn1"
82

Quote half-life reported for "CCN(C(=O)c1nc(C)ccc1-n1nccn1)[C@@H](C)COc1ccc(Cl)cn1" please.
25

Return half-life for the following compound: "CCN(C(=O)c1ncc(C)cc1-n1cccn1)[C@@H](C)COc1ccc(C(F)(F)F)cn1"
20

Fill in reported half-life for this entry: "CCN(C(=O)c1ccc(C(F)(F)F)nc1-c1ccn(C)n1)[C@@H](C)COc1ccc(C(F)(F)F)cn1"
11

# return recorded half-life for input "CCN(C(=O)c1cc(OC)ncc1-c1ccn(C)n1)[C@@H](C)COc1ccc(C(F)(F)F)cn1"
12

Give the reported half-life for this compound. "CCN(C(=O)c1cc(OC)cnc1-n1nccn1)[C@@H](C)COc1ccc(Cl)cn1"
110

Provide measured half-life value, entry: "CCN(C(=O)c1cnc(C)nc1-c1ccccc1)[C@@H](C)COc1ncc(C(F)(F)F)cn1"
88

Recall and state the measured half-life for "CCN(C(=O)c1ccncc1-n1cccn1)[C@@H](C)COc1ccc(C(F)(F)F)cn1" .
10

Supply half-life value. Item: "CCN(C(=O)c1cc(C(F)(F)F)cnc1-n1cccn1)[C@@H](C)COc1ccc(C(F)(F)F)cn1"
83

Identify the reported half-life for the following entry. "CCN(C(=O)c1ncccc1-n1nccn1)[C@@H](C)COc1ccc(Cl)cn1"
63

Hello, please tell me recorded half-life for this one: "CCN(C(=O)c1cnccc1-n1nccn1)[C@@H](C)COc1ncc(C(F)(F)F)cc1F"
13

###

testedOn: human orexin 2 receptor (Homo sapiens, UniProt O43614)
Construct: stably expressing the full-length human orexin 2 receptor; expressed in transfected cells; host or cells: CHO-K1 (CHO-K1/hOX2), co-expressing aequorin
Sequence (O43614 whole entry): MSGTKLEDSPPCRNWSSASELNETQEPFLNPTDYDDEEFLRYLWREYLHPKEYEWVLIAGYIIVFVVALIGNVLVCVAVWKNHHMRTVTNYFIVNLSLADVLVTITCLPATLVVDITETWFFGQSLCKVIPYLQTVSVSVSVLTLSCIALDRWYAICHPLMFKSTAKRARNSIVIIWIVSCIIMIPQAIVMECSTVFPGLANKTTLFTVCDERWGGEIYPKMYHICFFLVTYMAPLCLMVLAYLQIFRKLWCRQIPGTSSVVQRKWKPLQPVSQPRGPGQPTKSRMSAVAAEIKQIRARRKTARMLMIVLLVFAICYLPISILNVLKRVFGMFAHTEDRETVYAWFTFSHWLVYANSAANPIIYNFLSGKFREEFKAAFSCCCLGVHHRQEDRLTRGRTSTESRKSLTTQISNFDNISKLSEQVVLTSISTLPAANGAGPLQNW
assayExplanation: Assay B: OX2R IP1 (in vitro OX2R potency)
Assay type: cell-based
protocolConditions: Table 3; 0.5 nM Orexin A concentration
propertyName: Kb (nM)
Could you give me the number in nM? Just the number is fine.

Tell me measured Kb for "CCN(C(=O)c1cccnc1-n1nccn1)[C@@H](C)COc1ccc(C(F)(F)F)cn1" please.
678

Give the reported Kb for this compound. "CCN(C(=O)c1nccc(C(F)(F)F)c1-c1ccn(C)n1)[C@@H](C)COc1ccc(C(F)(F)F)cn1"
26

Tell me Kb reported for "CCN(C(=O)c1nc(C)ccc1-n1nccn1)[C@@H](C)COc1ccc(C(F)(F)F)cn1"
59

Give Kb for "CCN(C(=O)c1nc(C)ccc1-n1nccn1)[C@@H](C)COc1ncc(C(F)(F)F)cn1"
2900

Name the recorded Kb of the item "CCN(C(=O)c1ncccc1-n1nccn1)[C@@H](C)COc1ccc(Cl)cn1" in your answer.
339

Note down Kb recorded for "CCN(C(=O)c1cc(C)cnc1-c1ccn(C)n1)[C@@H](C)COc1ccc(C(F)(F)F)cn1"
134

Specify measured Kb for "CCN(C(=O)c1c(F)ccnc1-c1ccn(C)n1)[C@@H](C)COc1ccc(C(F)(F)F)cn1" .
327

Provide only the value of recorded Kb for "CCN(C(=O)c1nc(C)ccc1-c1ncccn1)[C@@H](C)COc1cnc(C(F)(F)F)cn1"
337

Assign Kb to the following record: "CCN(C(=O)c1c(F)cncc1-n1cccn1)[C@@H](C)COc1ccc(C(F)(F)F)cn1"
1070

Given "CCN(C(=O)c1ncccc1-n1nccn1)[C@@H](C)COc1ncc(C(F)(F)F)cc1F" , respond with its Kb.
419

Please indicate Kb recorded for "CCN(C(=O)c1ccc(C)nc1-n1nccn1)[C@@H](C)COc1ncc(C(F)(F)F)cc1F"
882

Please list Kb recorded for the compound "CCN(C(=O)c1ccc(C)nc1-n1nccn1)[C@@H](C)COc1cnc(C(F)(F)F)cn1"
3280

Please give measured Kb of the following entry: "CCN(C(=O)c1cc(Cl)cnc1-n1nccn1)[C@@H](C)COc1ccc(C(F)(F)F)cn1"
250

Please report Kb for the following compound: "CCN(C(=O)c1cnccc1-n1nccn1)[C@@H](C)COc1ncc(C(F)(F)F)cc1F"
483

Please give the documented Kb of "CCN(C(=O)c1cc(F)cnc1-n1nccn1)[C@@H](C)COc1ncc(C(F)(F)F)cc1F"
2700

State, in one line, measured Kb of "CCN(C(=O)c1cnccc1-n1nccn1)[C@@H](C)COc1ccc(Cl)cn1"
381

###

assayExplanation: Assay C: Human MST t1/2 (stability in human liver microsomes)
Format: in vitro ADME
protocolConditions: human liver microsomes
propertyName: half-life (h)
Your answer is read as h, so omit the unit and give the number.

Give the value of half-life reported for the following: "CCN(C(=O)c1nc(C)ccc1-n1nccn1)[C@@H](C)COc1ncc(C(F)(F)F)cn1"
1.83

Give a short answer stating reported half-life for "CCN(C(=O)c1ncccc1-n1nccn1)[C@@H](C)COc1ncc(C(F)(F)F)cc1F" .
0.933

Give half-life for the following compound: "CCN(C(=O)c1ncc(F)cc1-c1ccn(C)n1)[C@@H](C)COc1ccc(C(F)(F)F)cn1"
0.4

Recall and state the measured half-life for "CCN(C(=O)c1nc(C)ccc1-n1nccn1)[C@@H](C)COc1ncc(C(F)(F)F)cc1F" .
0.217

###

testedOn: human Orexin 1 receptor (Homo sapiens)
Construct: stably expressing the full-length human Orexin 1 receptor; expressed in transfected cells; host or cells: CHO-K1 (CHO-K1/hOX1), co-expressing aequorin
assayExplanation: Assay A: OX1R IP1 (in vitro OX1R potency)
Assay type: cell-based
protocolConditions: Table 3; Orexin A concentration 50 nM
propertyName: Kb (pM)
Just the number in pM, nothing appended.

Quote Kb reported for CCN(C(=O)c1cc(OC)cnc1-n1nccn1)[C@@H](C)COc1ccc(C(F)(F)F)cn1 [Example 56] please.
490

Note Kb for the compound shown: CCN(C(=O)c1ccc(C)nc1-n1nccn1)[C@@H](C)COc1ccc(C(F)(F)F)cn1 [Example 17]
220

Return Kb (reported value) for this compound: CCN(C(=O)c1cc(C)cnc1-c1ccn(C)n1)[C@@H](C)COc1ccc(C(F)(F)F)cn1 [Example 27]
690

Output Kb of CCN(C(=O)c1ccc(OC)nc1-c1ccn(C)n1)[C@@H](C)COc1ccc(C(F)(F)F)cn1 [Example 32]
150
